# MEASUREMENT DESCRIPTION: self-splicing fitness, log relative to wild type (ln ratio); higher = more splicing; Tetrahymena group I intron in knt gene, E. coli kanamycin selection, DiMSum; sequences stand for … in CUCUCU…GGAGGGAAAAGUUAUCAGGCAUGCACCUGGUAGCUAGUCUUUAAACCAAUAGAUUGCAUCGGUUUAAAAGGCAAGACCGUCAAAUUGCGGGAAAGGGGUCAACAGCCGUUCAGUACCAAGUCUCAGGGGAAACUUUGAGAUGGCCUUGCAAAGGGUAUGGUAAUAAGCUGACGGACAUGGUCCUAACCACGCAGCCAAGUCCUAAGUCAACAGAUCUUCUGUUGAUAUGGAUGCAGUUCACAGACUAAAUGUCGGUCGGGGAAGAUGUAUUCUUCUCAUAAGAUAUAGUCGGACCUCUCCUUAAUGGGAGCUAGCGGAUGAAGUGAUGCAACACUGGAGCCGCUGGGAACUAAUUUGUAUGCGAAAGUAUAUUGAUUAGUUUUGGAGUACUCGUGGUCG;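 further: selection with 25 µg/mL kanamycin versus none on LB agar overnight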
# SETUP CONDITIONS: 30 °C
MEASUREMENT NAME: self-splicing fitness (ln)

>  <SEQUENCE DATA>
GCGGAGCAAUAUUACGUUAC

>  <self-splicing fitness (ln)>
-1.51

$$$$
>  <SEQUENCE DATA>
UUACAGCAAUAUUACGCGUG

>  <self-splicing fitness (ln)>
-1.17

$$$$
>  <SEQUENCE DATA>
AUCCAGCAAUAUUACGCAUU

>  <self-splicing fitness (ln)>
-1.37

$$$$

Consider the sequence shown here: CACUAGCAAUAUUACGCCCA What is its recorded self-splicing fitness (ln)?
-1.1

Please look up its self-splicing fitness (ln): GUGCAGCAAUAUUACGUGUA
-2.77

Reported self-splicing fitness (ln), sequence AGUGAGCAAUAUUACGGUGG : ____
-3.06

Query: self-splicing fitness (ln); subject: CACUAGCAAUAUUACGCACU
-1.54

What value of self-splicing fitness (ln) has been reported for the following sequence? UCGCAGCAAUAUUACGCAAG
-3.01

Entry GCCAAGCAAUAUUACGUUUG has what self-splicing fitness (ln)?
-3.38

Tell me the measured self-splicing fitness (ln) of CAAUAGCAAUAUUACGUUAG , please.
-1.44

Reported self-splicing fitness (ln), sequence UGUAAGCAAUAUUACGUGGG : ____
-3.6

Which self-splicing fitness (ln) value is on record for ACCGAGCAAUAUUACGCCGU ?
-3.49

Value lookup for self-splicing fitness (ln); key = CAUAAGCAAUAUUACGAAAU
-3.7
